Target: POLRMT (Homo sapiens (Human))
pIC50: −log10 of the molar value.
Binary call on pIC50: criterion met from 6 upward, criterion not met beneath that.

| compound | assigned.category |
| --- | --- |
| COc1ccccc1-c1cc(=O)oc2cc(NC(C)=O)ccc12 | criterion not met |

Query string: Is the recorded value of pIC50 equal to or greater than 6 for this compound? Cc1ccccc1-c1cc(=O)oc2cc(C(=O)N3CC(C(N)=O)C3)ccc12
Result string: criterion not met

Query string: Is the recorded value of pIC50 equal to or greater than 6 for this compound? Cc1ccccc1-c1cc(=O)oc2cc(N(C)[C@H](C)C(=O)N3CCC[C@H](C(=O)O)C3)ccc12
Result string: criterion met

Query string: Is the recorded value of pIC50 equal to or greater than 6 for this compound? Cc1ccccc1-c1cc(=O)oc2cc(CN(C)C(=O)N3CCC[C@@H](C(=O)O)C3)ccc12
Result string: criterion not met

Query string: Is the recorded value of pIC50 equal to or greater than 6 for this compound? Cc1ccccc1-c1cc(=O)oc2cc(CC(C)C(=O)N3CCCCC3)ccc12 (single isomer, unassigned)
Result string: criterion not met

Query string: Is the recorded value of pIC50 equal to or greater than 6 for this compound? Cc1ccccc1-c1cc(=O)oc2cc(C(=O)N(C)CC(N)=O)ccc12
Result string: criterion not met

###

Let's go through some recorded IC50 values for POLRMT (Homo sapiens (Human), UniProt O00411) together.
Report the value in nM with no unit label.

Query string: Value wanted: IC50 (POLRMT (Homo sapiens (Human), UniProt O00411)) of entry CNC(=O)[C@@H]1C[C@H]1c1ccc2c(-c3ccccc3C)cc(=O)oc2c1 (relative stereo)
Result string: 2000

Query string: Value wanted: IC50 (POLRMT (Homo sapiens (Human), UniProt O00411)) of entry CC(=O)NC(C)c1ccc2c(-c3ccccc3C)cc(=O)oc2c1 (centres unmarked)
Result string: 2000

Query string: Value wanted: IC50 (POLRMT (Homo sapiens (Human), UniProt O00411)) of entry C[C@H](Cc1ccc2c(-c3ccc(F)cc3Cl)cc(=O)oc2c1)C(=O)N1CCC[C@H](C(=O)O)C1
Result string: 100

Query string: Value wanted: IC50 (POLRMT (Homo sapiens (Human), UniProt O00411)) of entry Cc1ccccc1-c1cc(=O)oc2cc(N(C)CCC(N)=O)ccc12
Result string: 700

Query string: Value wanted: IC50 (POLRMT (Homo sapiens (Human), UniProt O00411)) of entry Cc1ccccc1-c1cc(=O)oc2cc(CC(C)C(N)=O)ccc12 (single isomer, unassigned) [Example 69]
Result string: 5000

###

Biological target: POLRMT (Homo sapiens (Human), UniProt O00411)
Sequence (O00411 42-1230): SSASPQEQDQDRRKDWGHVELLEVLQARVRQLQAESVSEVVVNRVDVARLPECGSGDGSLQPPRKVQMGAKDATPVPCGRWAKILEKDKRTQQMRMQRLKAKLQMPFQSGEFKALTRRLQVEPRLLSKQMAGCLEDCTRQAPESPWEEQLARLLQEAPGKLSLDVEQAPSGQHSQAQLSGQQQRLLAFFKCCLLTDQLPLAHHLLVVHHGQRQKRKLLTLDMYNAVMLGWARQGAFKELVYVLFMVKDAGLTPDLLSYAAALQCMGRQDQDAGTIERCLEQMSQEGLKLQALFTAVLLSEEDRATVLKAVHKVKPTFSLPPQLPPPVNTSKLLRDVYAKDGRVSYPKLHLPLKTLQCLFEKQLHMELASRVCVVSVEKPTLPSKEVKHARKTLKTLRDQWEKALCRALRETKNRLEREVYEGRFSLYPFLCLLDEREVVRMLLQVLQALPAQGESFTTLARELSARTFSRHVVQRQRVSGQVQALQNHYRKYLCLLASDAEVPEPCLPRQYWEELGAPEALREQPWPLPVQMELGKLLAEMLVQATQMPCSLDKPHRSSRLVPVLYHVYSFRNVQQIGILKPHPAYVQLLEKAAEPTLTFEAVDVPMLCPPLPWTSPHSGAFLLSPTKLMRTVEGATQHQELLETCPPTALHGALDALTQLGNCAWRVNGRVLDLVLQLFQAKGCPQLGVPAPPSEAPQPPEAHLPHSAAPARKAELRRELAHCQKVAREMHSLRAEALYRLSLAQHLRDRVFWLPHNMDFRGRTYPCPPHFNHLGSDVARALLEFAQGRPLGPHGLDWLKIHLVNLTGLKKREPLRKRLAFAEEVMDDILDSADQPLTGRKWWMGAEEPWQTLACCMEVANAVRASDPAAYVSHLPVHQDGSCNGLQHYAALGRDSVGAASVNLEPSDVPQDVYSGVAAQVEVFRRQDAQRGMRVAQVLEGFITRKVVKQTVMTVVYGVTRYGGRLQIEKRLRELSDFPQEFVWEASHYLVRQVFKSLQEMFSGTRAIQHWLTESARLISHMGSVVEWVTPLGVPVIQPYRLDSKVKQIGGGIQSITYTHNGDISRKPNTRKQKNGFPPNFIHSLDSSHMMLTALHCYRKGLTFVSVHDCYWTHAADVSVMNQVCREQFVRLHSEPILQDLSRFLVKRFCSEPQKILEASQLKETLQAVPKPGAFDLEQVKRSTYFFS
pIC50: −log10 of the molar value.
Binary call on pIC50: class 1 from 5 upward, class 0 beneath that.

| compound | assigned.category |
| --- | --- |
| CCCNC(=O)c1ccc2c(-c3ccc(F)cc3Cl)cc(=O)oc2c1 | class 0 |
| CC(=O)NC[C@@H]1CCN(C(=O)c2ccc3c(-c4ccccc4C)cc(=O)oc3c2)C1 | class 0 |
| Cc1ccccc1-c1cc(=O)oc2cc(NC(=O)C(C)C)ccc12 | class 1 |

Query string: Is the recorded value of pIC50 equal to or greater than 5 for this compound? CC(O)c1ccc2c(-c3ccc(F)cc3Cl)cc(=O)oc2c1 (stereo not shown)
Result string: class 1

Query string: Is the recorded value of pIC50 equal to or greater than 5 for this compound? CN(CCC(=O)O)c1ccc2c(-c3ccccc3Cl)cc(=O)oc2c1
Result string: class 1

Query string: Is the recorded value of pIC50 equal to or greater than 5 for this compound? C[C@H](Cc1ccc2c(-c3ccc(F)cc3Cl)cc(=O)oc2c1)C(=O)N1CCCCC1
Result string: class 0
